Tested on: CAKI-1 renal
Experiment: NCI tumour cell line growth inhibition, 48 h
Overview of reported TGI across a group of compounds:

Example cases with answers are listed next.
Given item "Cn1cc(C2=C(Nc3ccccc3)C(=O)NC2=O)c2ccccc21" , the value recorded as its TGI is > 25 µM

Given item "O=C(/C=C(\C(=O)c1cccs1)c1cccs1)c1ccc(C(=O)/C=C(\C(=O)c2cccs2)c2cccs2)cc1" , the value recorded as its TGI is > 100 µM

Given item "COCCOCCOCCOc1cccc2c1C(=O)c1cccc(OCCOCCOCCOC)c1C2=O" , the value recorded as its TGI is > 100 µM

Given item COc1c(N2CCN(CN3C(=O)C(=O)c4cc(Cl)ccc43)C(C)C2)c(F)cc2c(=O)c(C(=O)O)cn(C3CC3)c12 (stereo not drawn) , the value recorded as its TGI is > 100 µM

Given item "O=C(Cn1c(C(=O)c2ccccc2)nc2ccccc21)c1ccccc1" , the value recorded as its TGI is > 100 µM

Given item OC1(c2ccc(Cl)cc2)c2ccccc2-c2nc3ccccc3n21 (stereo not drawn) , the value recorded as its TGI is > 100 µM

Given item "c1ccc2c(c1)cc1n2CCc2c-1[nH]c1ccccc21" , the value recorded as its TGI is > 10 µM

Given item "O=c1c2cc3c(cc2c2cccc4c2n1CCC4)OCO3" , the value recorded as its TGI is > 100 µM

Given item "O=c1cccc(-c2cccc(=O)[nH]2)[nH]1" , the value recorded as its TGI is > 100 µM

Given item CC(Oc1ccccc1)C(=O)NNC(=O)OC(C)(C)C (stereo not drawn) , the value recorded as its TGI is > 100 µM

More entries:
Given item "CC(C)(NC(=O)OCc1ccccc1)C(=O)OC(=O)C(C)(C)NC(=O)OCc1ccccc1" , the value recorded as its TGI is > 100 µM

Given item Cc1cccc(CC(Cc2ccc(C)cc2C(=O)O)C(=O)O)c1 (stereo not drawn) , the value recorded as its TGI is > 100 µM

Given item CCC(C)C(=O)OCC(=O)c1ccc(-c2ccccc2)cc1 (stereo not drawn) , the value recorded as its TGI is > 100 µM

----------
Overview of reported TGI across a group of compounds:
System: SF-268 CNS
Experiment: NCI tumour cell line growth inhibition, 48 h

SF-268 CNS TGI of "C[C@@H](CO)NC(=O)c1cc(-c2ccc(Cl)cc2)nn(-c2cnn(C)c2)c1=O" is > 100 µM

SF-268 CNS TGI of "O=c1[nH]c(NCc2ccc(Cl)cc2)nc2nc[nH]c12" is > 100 µM

SF-268 CNS TGI of "C/C(=N\O)c1cccc[n+]1Cc1ccccc1" is > 100 µM

SF-268 CNS TGI of "O=[N+]([O-])c1cc2no[n+]([O-])c2cc1N1CCCCC1" is 41.2 µM

SF-268 CNS TGI of CCCCOC(=O)C1CC[C@H]2[C@@H]3CCc4cc(OC(=O)c5cccc6c(=O)c7ccccc7[nH]c56)ccc4[C@H]3CC[C@]12C (stereo partly drawn) is 19.6 µM

SF-268 CNS TGI of CCC1(CN(C)C)CC/C(=C\c2ccc(OC)c(OC)c2)C1=O (stereo not drawn) is > 100 µM

More entries:
SF-268 CNS TGI of CC(C)(C)N/N=C(\C(=O)NC1=C(Cl)C(=O)c2ccccc2C1=O)C1C=CCS1(=O)=O (stereo not drawn) is > 100 µM

SF-268 CNS TGI of "CC(C)c1ccccc1SCc1cc(=O)cc(CSc2ccccc2C(C)C)o1" is 33.4 µM

----------
System: COLO 205 colon
Assay: NCI tumour cell line growth inhibition, 48 h
Overview of reported TGI across a group of compounds:
Give the quantity in µM, number only.

Given item "O=C(O)c1nc2ccc(C(F)(F)F)cc2nc1Nc1ccc(F)cc1" , the value recorded as its TGI is 44.1

Please turn your attention to the following entry.
Given item "CCCCCCCCCCCc1c(O)c(=O)c2c(oc3c(=O)c(CCCCCCCCCCC)c(O)c(=O)c3n2-c2ccc(N(C)C)cc2)c1=O" , the value recorded as its TGI is 38.1

----------
Tested on: SK-MEL-2 melanoma
Assay: NCI tumour cell line growth inhibition, 48 h
Overview of reported TGI across a group of compounds:

Given item "N#Cc1cccc(C=NC23CC4CC(CC(C4)C2)C3)c1" , the value recorded as its TGI is > 100 µM

Given item "C=Cn1c([N+](=O)[O-])cnc1/C=C/c1ccc(C(=O)OCCN2CCOCC2)cc1" , the value recorded as its TGI is > 100 µM

Given item "COC(=O)[C@H](Cc1cn(C)cn1)NC(=O)[C@H](C)NC(=O)Nc1cc(C(F)(F)F)cc(C(F)(F)F)c1" , the value recorded as its TGI is > 10 µM

Given item "Cc1cc(Cl)ccc1C(=O)c1ccc2ccccc2c1C(=O)O" , the value recorded as its TGI is > 100 µM

Given item CCC(C)C(=O)OCC(=O)c1ccc(-c2ccccc2)cc1 (stereo not given) , the value recorded as its TGI is > 100 µM

Given item O=C1CSC(c2cccc(Cl)c2)N1c1ccc(-c2ccc(-n3c(-c4ccccc4)nc4ccccc4c3=O)cc2)cc1 (stereo not given) , the value recorded as its TGI is > 100 µM

Given item "CC1(C)O[C@@H]2C[C@H]3[C@@H]4C[C@H](F)C5=CC(=O)C=C[C@]5(C)[C@@]4(F)[C@@H](O)C[C@]3(C)[C@]2(C(=O)CO)O1" , the value recorded as its TGI is > 100 µM

Given item "Cc1nc2cc(Nc3ccccc3C(=O)O)ccc2s1" , the value recorded as its TGI is > 100 µM

Given item "O=C(O)c1c(Br)c(Br)c(Br)c(Br)c1C1c2ccc(O)cc2Oc2cc(O)ccc21" , the value recorded as its TGI is > 100 µM

More entries:
Given item "CCN1C(=NCCO)NS(=O)(=O)c2ccccc21" , the value recorded as its TGI is > 100 µM

----------
Overview of reported TGI across a group of compounds:
Tested on: COLO 205 colon
Experiment: NCI tumour cell line growth inhibition, 48 h
Give the quantity in µM, number only.

Given item "CCCCCCCCCCCCCC[n+]1ccc(C)cc1" , the value recorded as its TGI is 2.67

Please turn your attention to the following entry.
Given item COC(=O)C(C(=O)OC)C(Br)C(Br)C(Br)c1ccccc1 (stereo not given) , the value recorded as its TGI is 4.62

----------
Tested on: PC-3 prostate
Experiment: NCI tumour cell line growth inhibition, 48 h
Overview of reported TGI across a group of molecules:
Give the quantity in µM, number only.

Given item "CC1=C(C)CC2(C=C(C(C)(C)C)C(=O)C(C(C)(C)C)=C2)SC1" , the value recorded as its TGI is 73.8

More entries:
Given item "COc1cc(C)c2sc3ccccc3c(=O)c2c1NCCN(C)C" , the value recorded as its TGI is 17.4

Given item "Cl.Fc1c[c-]c(-c2ccccn2)c(F)c1.[Pt].c1ccc([PH+](C[PH+](c2ccccc2)c2ccccc2)c2ccccc2)cc1" , the value recorded as its TGI is 1.14

----------
Tested on: U251 CNS
Result category, one only: Y = active, N = inactive

Here's what some known entries look like.
[in] Check the results log: what was the call for "COc1ccc(CCN2CCC(CN(C)Cc3cnn(-c4ccccc4)c3)CC2)cc1" ?
[out] N

[in] Check the results log: what was the call for COc1c(N2CCN(CN3C(=O)C(=O)c4cc(Cl)ccc43)C(C)C2)c(F)cc2c(=O)c(C(=O)O)cn(C3CC3)c12 (stereo not drawn) ?
[out] N

Field: next compound
[in] Check the results log: what was the call for "Cc1[nH]c2cc(F)ccc2c1-c1nc2c3cccnc3c3ncccc3c2[nH]1" ?
[out] Y

----------
Tested on: HOP-62 NSCLC
Experiment: NCI tumour cell line growth inhibition, 48 h
value kind: TGI

Example cases with answers are listed next.
Given item C[C@H](CCC1SC1(C)C)C1CCC2(C)C3=C(CC[C@]12C)[C@@]1(C)CC[C@H](O)C(C)(C)C1CC3 (some centres not stated) , the value recorded as its TGI is > 100 µM

Given item "N#CC1=C(O)NC(O)=C(C#N)C1c1ccc(C2C(C#N)=C(O)NC(O)=C2C#N)cc1" , the value recorded as its TGI is > 100 µM

Given item "Cn1cc(C(=O)c2ccccc2)cc(C(=O)c2ccccc2)c1=O" , the value recorded as its TGI is > 100 µM

Given item "O=C(NO)NCCCl" , the value recorded as its TGI is > 100 µM

More entries:
Given item NCCN1C(=O)c2ccccc2C1c1ccc(Cl)cc1 (configuration not stated) , the value recorded as its TGI is > 100 µM

Given item C[C@]12CC(c3ccccc3O1)C(C(=O)Nc1nc(C34CC5CC(CC(C5)C3)C4)cs1)C(=O)N2 (some centres not stated) , the value recorded as its TGI is > 100 µM

Given item Cc1cccc(CC(Cc2ccc(C)cc2C(=O)O)C(=O)O)c1 (configuration not stated) , the value recorded as its TGI is > 100 µM

Given item COc1ccccc1C(=O)NCC1CCCN2CCCCC12 (configuration not stated) , the value recorded as its TGI is > 100 µM

Given item "Cc1c2c(n(CC(c3ccccc3)c3ccccc3)c1C)NN=C(C#N)S2(=O)=O" , the value recorded as its TGI is > 100 µM

Given item "Cn1cc(C2=C(Nc3ccccc3)C(=O)NC2=O)c2ccccc21" , the value recorded as its TGI is > 25 µM

Given item "O=C(NCCCl)SCCO" , the value recorded as its TGI is > 100 µM

Given item "Cc1ccc2c(c1)nc1n2C(N)=Nc2ccccc2S1" , the value recorded as its TGI is > 100 µM
